src = patent US11878975B2

# Target entity: human TLR8 (Homo sapiens, UniProt Q9NR97)
# Sequence (Q9NR97 27-1041): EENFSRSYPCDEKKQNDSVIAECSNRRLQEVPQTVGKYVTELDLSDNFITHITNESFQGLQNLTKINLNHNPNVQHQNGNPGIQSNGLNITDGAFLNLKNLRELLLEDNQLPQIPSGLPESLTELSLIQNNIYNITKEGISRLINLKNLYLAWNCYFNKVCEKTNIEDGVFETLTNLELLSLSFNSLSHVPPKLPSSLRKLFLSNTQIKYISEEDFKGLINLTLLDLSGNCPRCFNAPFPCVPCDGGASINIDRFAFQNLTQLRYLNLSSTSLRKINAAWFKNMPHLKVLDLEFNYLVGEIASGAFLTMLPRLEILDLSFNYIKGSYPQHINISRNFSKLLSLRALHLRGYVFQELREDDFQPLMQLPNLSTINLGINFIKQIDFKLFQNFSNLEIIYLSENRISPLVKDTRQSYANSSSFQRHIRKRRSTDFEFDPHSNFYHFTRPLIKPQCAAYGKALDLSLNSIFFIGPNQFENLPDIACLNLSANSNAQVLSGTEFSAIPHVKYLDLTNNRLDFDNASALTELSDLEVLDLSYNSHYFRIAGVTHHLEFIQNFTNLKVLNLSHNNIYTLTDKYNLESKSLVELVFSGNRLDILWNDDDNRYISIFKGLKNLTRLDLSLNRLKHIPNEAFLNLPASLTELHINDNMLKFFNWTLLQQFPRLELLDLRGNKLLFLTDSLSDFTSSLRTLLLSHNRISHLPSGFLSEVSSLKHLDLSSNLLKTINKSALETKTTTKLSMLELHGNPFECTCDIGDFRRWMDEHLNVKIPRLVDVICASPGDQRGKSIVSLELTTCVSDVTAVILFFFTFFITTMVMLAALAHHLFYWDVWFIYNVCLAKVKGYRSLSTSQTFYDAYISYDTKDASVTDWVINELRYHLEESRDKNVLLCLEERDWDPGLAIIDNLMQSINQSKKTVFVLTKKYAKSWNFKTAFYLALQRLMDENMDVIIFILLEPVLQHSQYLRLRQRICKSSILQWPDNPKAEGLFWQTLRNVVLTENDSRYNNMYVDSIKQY
# Assay protocol: TLR8 inhibition reporter assay (HEK-Blue cells, SEAP reporter, R848 stimulation)
# Measurement conditions: HEK-Blue cells overexpressing human TLR8, SEAP reporter, R848 15.9 μM
IC50 reference
Endpoint: IC50 (nM)

- Cc1cc(-c2[nH]c3ccc(C4CCC(C(=O)N5CCCCC5)CC4)cc3c2C(C)C)cn2ncnc12 (single isomer, unassigned) [Example 159]: 1850
- Cc1c(-c2[nH]c3ccc(C4CN(CCS(C)(=O)=O)CCO4)cc3c2C(C)C)cn2ncnc2c1C (stereo not shown) [Example 346]: 24
- COc1cc(-c2[nH]c3ccc(CC4CN(C(C)C)C4)cc3c2C(C)C)cn2ncnc12: 3
- COCCC(=O)N1CCCC(c2ccc3[nH]c(-c4cc(C)nc(C)c4)c(C(C)C)c3c2)C1 (stereo not shown) [Example 208]: 43
- Cc1cc(-c2[nH]c3ccc(C4CCC(N5CCCC(F)(F)C5)CC4)cc3c2C(C)C)cn(C)c1=O (stereo not shown) [Example 467]: 33
- Cc1cc(-c2[nH]c3ccc(C4CCC(O)CC4)cc3c2C(C)C)cc(C)n1 (single isomer, unassigned) [Example 172]: 35
- Cc1c(-c2[nH]c3ccc(C4CCC(NCC(=O)N(C)C)CC4)cc3c2C(C)C)cn(C)c(=O)c1C (stereo not shown) [Example 473]: 15

----------
# Target entity: human TLR9 (Homo sapiens, UniProt Q9NR96)
# Sequence (Q9NR96 26-1032): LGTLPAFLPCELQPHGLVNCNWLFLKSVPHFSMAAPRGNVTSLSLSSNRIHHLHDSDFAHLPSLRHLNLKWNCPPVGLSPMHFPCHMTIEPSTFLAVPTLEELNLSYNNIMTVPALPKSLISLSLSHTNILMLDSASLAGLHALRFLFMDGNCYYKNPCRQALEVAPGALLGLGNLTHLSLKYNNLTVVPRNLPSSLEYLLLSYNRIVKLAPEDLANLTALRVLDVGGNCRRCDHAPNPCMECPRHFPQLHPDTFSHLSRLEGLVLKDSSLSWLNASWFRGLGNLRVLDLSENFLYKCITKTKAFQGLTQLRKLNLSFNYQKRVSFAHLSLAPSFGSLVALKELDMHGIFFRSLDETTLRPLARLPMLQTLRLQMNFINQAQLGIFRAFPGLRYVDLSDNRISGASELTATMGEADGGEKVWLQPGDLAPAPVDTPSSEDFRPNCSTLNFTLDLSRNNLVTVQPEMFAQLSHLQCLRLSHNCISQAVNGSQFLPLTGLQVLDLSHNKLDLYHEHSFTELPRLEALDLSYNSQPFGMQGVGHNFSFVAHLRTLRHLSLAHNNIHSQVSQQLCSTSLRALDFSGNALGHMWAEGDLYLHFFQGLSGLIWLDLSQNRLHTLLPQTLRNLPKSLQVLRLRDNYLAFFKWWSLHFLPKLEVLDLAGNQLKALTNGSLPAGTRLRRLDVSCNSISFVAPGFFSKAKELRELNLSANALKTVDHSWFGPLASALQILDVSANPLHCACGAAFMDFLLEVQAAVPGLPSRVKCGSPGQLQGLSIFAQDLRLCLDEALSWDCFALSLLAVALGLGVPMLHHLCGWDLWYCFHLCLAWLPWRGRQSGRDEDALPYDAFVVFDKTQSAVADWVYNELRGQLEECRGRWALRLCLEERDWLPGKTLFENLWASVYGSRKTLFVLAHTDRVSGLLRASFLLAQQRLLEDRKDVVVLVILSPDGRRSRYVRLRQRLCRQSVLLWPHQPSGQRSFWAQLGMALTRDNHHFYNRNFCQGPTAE
# Assay protocol: TLR9 inhibition reporter assay (HEK-Blue cells, SEAP reporter, ODN2006 stimulation)
# Measurement conditions: HEK-Blue cells overexpressing human TLR9, SEAP reporter, ODN2006 5 nM
Endpoint: IC50 (µM)

• CNCC(=O)N1CCCC(c2ccc3[nH]c(-c4cn5ncnc5c(C)c4C)c(C(C)C)c3c2)C1 (centres unmarked) [Example 213] = 6.52
• CCN(C)C1CCC(c2ccc3[nH]c(-c4cn5ncnc5c(C)c4C)c(C(C)C)c3c2)CC1 (centres unmarked) [Example 88] = 1.98
• CNC1CCC(c2ccc3[nH]c(-c4cc(OC)c5ncnn5c4)c(C(C)C)c3c2)CC1 (single isomer, unassigned) [Example 146] = 1.62
• Cc1c(-c2[nH]c3ccc(C4CN(CCS(C)(=O)=O)C4)cc3c2C(C)C)cn2ncnc2c1C [Example 543] = 9.49
• Cc1cc(-c2[nH]c3ccc([C@H]4C[C@H]4C(=O)N4CC5CC4CN5)cc3c2C(C)C)ccn1 (some centres unmarked) [Example 454] = 0.363
• COc1cc(-c2[nH]c3ccc(C4CCCN(CC(N)=O)C4)cc3c2C(C)C)cn2ncnc12 (centres unmarked) [Example 234] = 7.37
• COCCN1CCCC(c2ccc3[nH]c(-c4cc(OC)c5ncnn5c4)c(C(C)C)c3c2)C1 (single isomer, unassigned) [Example 252] = 1.16
• Cc1cc(-c2[nH]c3ccc(C4CCC(NC5CC5)CC4)cc3c2C(C)C)cn2ncnc12 (single isomer, unassigned) [Example 16] = 0.661
• Cc1cc(-c2[nH]c3ccc(C4CCCN(C(=O)C5C(C)(C)C5(C)C)C4)cc3c2C(C)C)cc(C)n1 (centres unmarked) [Example 200] = 26.5
• COc1cc(-c2[nH]c3ccc(C4CCCN(CC(C)(C)O)C4)cc3c2C(C)C)cn2ncnc12 (centres unmarked) [Example 248] = 2.01
• Cc1c(-c2[nH]c3ccc(C4CC(N)C4)cc3c2C(C)C)cn2ncnc2c1C (centres unmarked) [Example 541] = 5.74
• COc1cc(-c2[nH]c3ccc(C4CCC(N5CC(F)(F)C5)CC4)cc3c2C(C)C)cn2ncnc12 (centres unmarked) [Example 18] = 33.6
• CNCC(=O)NC1CCC(c2ccc3[nH]c(-c4cc(C)nc(C)c4)c(C(C)C)c3c2)CC1 (single isomer, unassigned) [Example 130] = 0.236
• COCCN(C)C1CCC(c2ccc3[nH]c(-c4cc(OC)c5ncnn5c4)c(C(C)C)c3c2)CC1 (single isomer, unassigned) [Example 72] = 1.28
• Cc1cc(-c2[nH]c3ccc(C4CNCCO4)cc3c2C(C)C)cn2ncnc12 (centres unmarked) [Example 282] = 3.8
• COc1cc(-c2[nH]c3ccc(C4CCC(N)CC4)cc3c2C(C)C)cn2ncnc12 (single isomer, unassigned) [Example 2] = 3.42
• CCc1c(-c2ccnc(C)c2)[nH]c2ccc(CNC(=O)CCC3CCNCC3)cc12 [Example 444] = 4.96
• CN[C@@H](C)C(=O)NC1CCC(c2ccc3[nH]c(-c4cn5ncnc5c(C)c4C)c(C(C)C)c3c2)CC1 (some centres unmarked) [Example 131] = 2.99
• COc1cc(-c2[nH]c3ccc(C4CCC(NC(=O)CNC5(C)COC5)CC4)cc3c2C(C)C)cn2ncnc12 (centres unmarked) [Example 135] = 43.8
• Cc1cc(-c2[nH]c3ccc(C4CCC(N5CCOCC5)CC4)cc3c2C(C)C)cn2ncnc12 (centres unmarked) [Example 102] = 1.89
• COCCN(C)C1CCC(c2ccc3[nH]c(-c4cn5ncnc5c(C)c4C)c(C(C)C)c3c2)CC1 (single isomer, unassigned) [Example 153] = 2.14
• COc1ccc(-c2[nH]c3ccc(C4CCCN(C(=O)CN(C)C)C4)cc3c2C(C)C)cc1OC (centres unmarked) [Example 195] = 2.21
• COc1cc(-c2[nH]c3ccc(C4CCC(C)(NC(=O)CN(C)C)CC4)cc3c2C(C)C)cn2ncnc12 (centres unmarked) [Example 154] = 5.68
• CNCC(=O)NC1CCC(c2ccc3[nH]c(-c4cc(C)nc(C)c4)c(C(C)C)c3c2)CC1 (single isomer, unassigned) [Example 129] = 0.544
• COc1cc(-c2[nH]c3ccc(C4CCCN(CCS(C)(=O)=O)C4)cc3c2C(C)C)cn2ncnc12 (centres unmarked) [Example 253] = 6.22
